Quick reference: Activity of the listed items.
System: Salmonella typhimurium
ASSAY METHOD TEXT: Mutagenicity against Salmonella typhimurium TA100 assessed as revertants at 1.5 uM incubated for 90 mins followed by drug washout measured after 2 days relative to positive control
Type: toxicity, organism-based
CONDITIONS USED: salmonella enterica subsp. enterica serovar typhimurium, 1.5 h
Note: state the figure and append the unit.

Below: 3 compounds and their reported Activity.
Fc1cc(C(Nc2ccnc3cc(Cl)ccc23)c2ccc(Cl)cc2)ccc1CN1CCCC1 (racemic) = 12%
COc1ccc2nccc(NC(c3cccc(Cl)c3)c3ccc(CN4CCCC4)c(Cl)c3)c2c1 (racemic) = 3%
Clc1ccc(C(Nc2ccnc3cc(Cl)ccc23)c2ccc(CN3CCNCC3)cc2)cc1 (racemic) = 19%

Attention now shifts to the item below.
// Activity value for Clc1cccc(C(Nc2ccnc3cc(Cl)ccc23)c2ccc(CN3CCNCC3)cc2)c1 (racemic) : 5%
